Test system: PANC-1
Experiment: Cytotoxicity against human PANC1 cells assessed as cell viability after 24 hrs by WST8 assay
Format: functional
Assay metric: Activity

| Item smiles | Data value |
| --- | --- |
| COc1cc2oc3cccc(OC)c3c(=O)c2cc1OC | Dose-dependent effect |
| COc1cccc(O)c1C(=O)OCc1ccccc1 | Dose-dependent effect |
| COc1cc(OC)c(C(=O)c2ccccc2)cc1OC | Dose-dependent effect |
